assay: Selectivity index, ratio of CC50 for human HepG2.2.15 cells to IC50 for inhibition of Hepatitis B virus DNA replication; format: functional
Just a reminder that ties go to -1: only Selectivity Index strictly below 7 counts as 1.

{"cpd-smiles": "COc1ccc(SCc2nc3c(Cn4ccnc4C)c(O)ccc3n2C)cc1", "group": 1}
{"cpd-smiles": "Nc1ccn([C@@H]2CS[C@H](CO)O2)c(=O)n1", "group": -1}
{"cpd-smiles": "Cc1nccn1Cc1c(O)ccc2c1nc(CSc1ccccc1)n2C", "group": -1}
{"cpd-smiles": "Cn1c(CSc2ccccc2)nc2c(Cn3ccnc3)c(O)ccc21", "group": -1}
{"cpd-smiles": "Cc1ccc(SCc2nc3c(Cn4ccnc4C)c(O)ccc3n2C)cc1", "group": 1}
{"cpd-smiles": "Cc1ccc(SCc2nc3c(Cn4ccnc4)c(O)ccc3n2C)cc1", "group": 1}

---

assay: Cytotoxicity against human HepG2(2.2.15) after 9 days by neutral dye uptake method; format: cell-based; conditions: HepG2(2.2.15) cells
Measured log10 CC50 at 216 h values are reported for all entries that follow.
readout: log10 CC50 at 216 h (log10 of the value in µM)

{"molecule": "Cc1ccc(S(=O)(=O)Cc2nc3c(Cn4ccnc4)c(O)ccc3n2C)cc1", "readout": "log10 CC50 at 216 h", "val": 2.70}
{"molecule": "Cc1ccc([S+]([O-])Cc2nc3c(Cn4ccnc4)c(O)ccc3n2C)cc1 (stereo unspecified)", "readout": "log10 CC50 at 216 h", "val": 2.88}
{"molecule": "Cn1c(C[S+]([O-])c2ccccc2)nc2c(Cn3ccnc3)c(O)ccc21 (stereo unspecified)", "readout": "log10 CC50 at 216 h", "val": 2.75}
{"molecule": "Cn1c(CS(=O)(=O)c2ccccc2)nc2c(Cn3ccnc3)c(O)ccc21", "readout": "log10 CC50 at 216 h", "val": 2.79}
{"molecule": "Cn1c(CSc2ccc(F)cc2)nc2c(CN3CCCC3)c(O)ccc21", "readout": "log10 CC50 at 216 h", "val": 1.87}
{"molecule": "Cn1c(CSc2ccccc2)nc2c(CN3CCOCC3)c(O)ccc21", "readout": "log10 CC50 at 216 h", "val": 1.94}
{"molecule": "COc1ccc(SCc2nc3c(Cn4ccnc4C)c(O)ccc3n2C)cc1", "readout": "log10 CC50 at 216 h", "val": 2.21}
{"molecule": "Cc1ccc(SCc2nc3c(Cn4ccnc4C)c(O)ccc3n2C)cc1", "readout": "log10 CC50 at 216 h", "val": 1.96}
{"molecule": "CN(C)Cc1c(O)ccc2c1nc(CSc1ccccc1)n2C", "readout": "log10 CC50 at 216 h", "val": 2.39}
{"molecule": "Cc1nccn1Cc1c(O)ccc2c1nc(CSc1ccccc1)n2C", "readout": "log10 CC50 at 216 h", "val": 2.00}
{"molecule": "Cc1ccc(SCc2nc3c(Cn4ccnc4)c(O)ccc3n2C)cc1", "readout": "log10 CC50 at 216 h", "val": 1.78}
{"molecule": "COc1ccc(SCc2nc3c(Cn4ccnc4)c(O)ccc3n2C)cc1", "readout": "log10 CC50 at 216 h", "val": 1.81}
{"molecule": "Cn1c(CSc2ccc(F)cc2)nc2c(Cn3ccnc3)c(O)ccc21", "readout": "log10 CC50 at 216 h", "val": 1.90}
{"molecule": "Cn1c(CSc2ccccc2)nc2c(Cn3ccnc3)c(O)ccc21", "readout": "log10 CC50 at 216 h", "val": 1.88}
{"molecule": "Nc1ccn([C@@H]2CS[C@H](CO)O2)c(=O)n1", "readout": "log10 CC50 at 216 h", "val": 3.34}
{"molecule": "Cn1c(CS(=O)(=O)c2ccccc2)nc2c(CN3CCOCC3)c(O)ccc21", "readout": "log10 CC50 at 216 h", "val": 2.87}
{"molecule": "CN1CCN(Cc2c(O)ccc3c2nc(CSc2ccc(F)cc2)n3C)CC1", "readout": "log10 CC50 at 216 h", "val": 1.81}
{"molecule": "Cn1c(CSc2ccccc2)nc2c(CN3CCCC3)c(O)ccc21", "readout": "log10 CC50 at 216 h", "val": 2.36}
{"molecule": "COc1cccc(SCc2nc3c(Cn4ccnc4C)c(O)ccc3n2C)c1", "readout": "log10 CC50 at 216 h", "val": 2.01}
{"molecule": "Cn1c(C[S+]([O-])c2ccccc2)nc2c(CN3CCOCC3)c(O)ccc21 (stereo unspecified)", "readout": "log10 CC50 at 216 h", "val": 2.95}
{"molecule": "CN1CCN(Cc2c(O)ccc3c2nc(CSc2ccccc2)n3C)CC1", "readout": "log10 CC50 at 216 h", "val": 2.32}
